target: cyBCMA; assay: Kinetics and affinity of cyBCMA/human IgG interactions by SPR (Bio-Rad Proteon XPR36); type: binding, cynomolgus; details: 37° C.
Outcome measure: kd (1/s) cyBCMA @37° C. (s⁻¹)
Reply numerically in s⁻¹, unit not repeated.

Exercise: Item L3.PY/L1.FF/H2.QR: anti-BCMA antibody (antibody, V domains shown) VH: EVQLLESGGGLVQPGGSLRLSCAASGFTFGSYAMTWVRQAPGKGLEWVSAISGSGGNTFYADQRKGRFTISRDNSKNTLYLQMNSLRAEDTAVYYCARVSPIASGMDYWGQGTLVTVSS VL: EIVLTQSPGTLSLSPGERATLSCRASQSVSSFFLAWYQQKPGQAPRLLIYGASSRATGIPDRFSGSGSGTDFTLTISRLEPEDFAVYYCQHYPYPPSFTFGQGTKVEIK : provide kd (1/s) cyBCMA @37° C.
Solution: 0.00421

Now, please, on to the next molecule.
Exercise: Item L3.PY/L1.FF/H2.YQ: anti-BCMA antibody (antibody, V domains shown) VH: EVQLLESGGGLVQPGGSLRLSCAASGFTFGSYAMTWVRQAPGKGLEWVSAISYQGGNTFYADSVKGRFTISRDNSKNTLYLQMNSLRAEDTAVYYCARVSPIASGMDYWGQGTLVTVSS VL: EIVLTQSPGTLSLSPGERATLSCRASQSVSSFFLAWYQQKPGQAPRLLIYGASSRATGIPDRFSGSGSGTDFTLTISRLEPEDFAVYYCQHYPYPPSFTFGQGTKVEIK : provide kd (1/s) cyBCMA @37° C.
Solution: 0.00326

Source listed as patent US11814435B2.
